Experiment: Plasma pharmacokinetics after single oral dose of Δ8-THCV in MCT oil (LC-MS/MS, non-compartmental analysis)
Assay type: in vivo, human
Details: human, plasma, oral, 100 mg, 4 h; 100 mg Δ8-THCV dose; Median (IQ Range)
# note: boundary value 1 ng/mL maps to N; concentration at 4 h below it maps to Y

As a guide, the following entries are already answered.
CCCCCc1cc(O)c2c(c1)OC(C)(C)[C@@H]1CC=C(C(=O)O)CC21 (single isomer, unassigned; (+)) [Δ8-THC-COOH, (+)-11-nor-Δ8-THC-9-carboxylic acid]
Y
CCCc1cc(O)c2c(c1)OC(C)(C)[C@@H]1CCC(C(=O)O)=C[C@@H]21
N
CCCc1cc(O)c2c(c1)OC(C)(C)[C@@H]1CC=C(C(=O)O)C[C@@H]21
N

# strict comparison: is reported concentration at 4 h < 1 ng/mL? input = CCCc1cc(O)c2c(c1)OC(C)(C)[C@@H]1CC=C(CO)C[C@@H]21 (racemic) [11-OH-Δ8-THCV, (±)-11-hydroxy-Δ8-THCV]
N

Confirm or reject: concentration at 4 h of CCCc1cc(O)c2c(c1)OC(C)(C)[C@@H]1CC=C(C)C[C@@H]21 [Δ8-THCV, Δ8-tetrahydrocannabivarin] lies strictly below 1 ng/mL
N

Is 1 ng/mL strictly greater than the compound's reported concentration at 4 h? compound: CCCc1cc(O)c2c(c1)OC(C)(C)[C@@H]1CCC(C)=C[C@@H]21 [Δ9-THCV, Δ9-tetrahydrocannabivarin]
Y

====

For each record, write down the corresponding AUC(0-t).
Test: Plasma pharmacokinetics after single oral dose of Δ8-THCV in MCT oil (LC-MS/MS, non-compartmental analysis)
Assay type: in vivo, human
Conditions: human, plasma, po, 25 mg, 25 mg single oral Δ8-THCV in MCT oil; Mean (±SD)
Answers are plain numbers, in ng·h/mL.

Example entries and their recorded answers appear below.
CCCc1cc(O)c2c(c1)OC(C)(C)[C@@H]1CCC(C(=O)O)=C[C@@H]21 [Δ9-THCV-COOH, 11-nor-9-carboxy-Δ9-THCV]
18.3
CCCc1cc(O)c2c(c1)OC(C)(C)[C@@H]1CC=C(CO)C[C@@H]21 (racemic) [11-OH-Δ8-THCV, (±)-11-hydroxy-Δ8-THCV]
1.5
CCCc1cc(O)c2c(c1)OC(C)(C)[C@@H]1CC=C(C)C[C@@H]21 [Δ8-THCV, Δ8-tetrahydrocannabivarin]
7.4

Consider the compound CCCc1cc(O)c2c(c1)OC(C)(C)[C@@H]1CC=C(C(=O)O)C[C@@H]21 [Δ8-THCV-COOH, 11-nor-9-carboxy-Δ8-THCV] . State its measured AUC(0-t).
642

====

Assay: Plasma pharmacokinetics after single oral dose of Δ8-THCV in MCT oil (LC-MS/MS, non-compartmental analysis)
Type: in vivo, human
Settings: human, plasma, oral, 12.5 mg, 6 h; 12.5 mg Δ8-THCV dose; Mean (SD, %CV)
The threshold is 0.1 ng/mL. Values of concentration at 6 h beneath it are tagged 1; values meeting or exceeding it are tagged -1.

CCCc1cc(O)c2c(c1)OC(C)(C)[C@@H]1CCC(C(=O)O)=C[C@@H]21
-1
CCCc1cc(O)c2c(c1)OC(C)(C)[C@@H]1CC=C(C)C[C@@H]21 [Δ8-THCV, Δ8-tetrahydrocannabivarin]
-1
CCCc1cc(O)c2c(c1)OC(C)(C)[C@@H]1CC=C(C(=O)O)C[C@@H]21
-1
CCCc1cc(O)c2c(c1)OC(C)(C)[C@@H]1CCC(C)=C[C@@H]21 [Δ9-THCV, Δ9-tetrahydrocannabivarin]
1

Proceed to the following item.
Below 0.1 ng/mL on concentration at 6 h? Entry CCCCCc1cc(O)c2c(c1)OC(C)(C)[C@@H]1CC=C(C(=O)O)CC21 (single isomer, unassigned; (+)) [Δ8-THC-COOH, (+)-11-nor-Δ8-THC-9-carboxylic acid]
1

====

Assay: Plasma pharmacokinetics after single oral dose of Δ8-THCV in MCT oil (LC-MS/MS, non-compartmental analysis)
Assay type: in vivo, human
Details: human, plasma, po, 50 mg, 50 mg single oral Δ8-THCV in MCT oil; plasma; Median (Range); read-out: MRT (mean residence time)
measurement.type: MRT
Don't forget the unit after the value.

Below are worked cases with known answers.
CCCc1cc(O)c2c(c1)OC(C)(C)[C@@H]1CCC(C(=O)O)=C[C@@H]21
5.5 h
CCCc1cc(O)c2c(c1)OC(C)(C)[C@@H]1CC=C(C)C[C@@H]21 [Δ8-THCV, Δ8-tetrahydrocannabivarin]
5.4 h
CCCc1cc(O)c2c(c1)OC(C)(C)[C@@H]1CC=C(C(=O)O)C[C@@H]21
5.3 h

Now consider a different molecule.
Note down MRT recorded for CCCc1cc(O)c2c(c1)OC(C)(C)[C@@H]1CC=C(CO)C[C@@H]21 (racemic) [11-OH-Δ8-THCV, (±)-11-hydroxy-Δ8-THCV]
6.1 h

====

Assay: Plasma pharmacokinetics after single oral dose of Δ8-THCV in MCT oil (LC-MS/MS, non-compartmental analysis)
Assay type: in vivo, human
Conditions: human, plasma, oral, 25 mg, 1 h; 25 mg Δ8-THCV dose; Mean (SD, %CV)
measurement.type: concentration at 1 h (ng/mL)
Answers are plain numbers, in ng/mL.

CCCc1cc(O)c2c(c1)OC(C)(C)[C@@H]1CC=C(C(=O)O)C[C@@H]21 [Δ8-THCV-COOH, 11-nor-9-carboxy-Δ8-THCV]
28.5

List the reported concentration at 1 h of each molecule below.
1. CCCCCc1cc(O)c2c(c1)OC(C)(C)[C@@H]1CC=C(C(=O)O)CC21 (single isomer, unassigned; (+)) [Δ8-THC-COOH, (+)-11-nor-Δ8-THC-9-carboxylic acid]
2. CCCc1cc(O)c2c(c1)OC(C)(C)[C@@H]1CCC(C(=O)O)=C[C@@H]21 [Δ9-THCV-COOH, 11-nor-9-carboxy-Δ9-THCV]

1. 0
2. 0.7

====

Experiment: Plasma pharmacokinetics after single oral dose of Δ8-THCV in MCT oil (LC-MS/MS, non-compartmental analysis)
Assay type: in vivo, human
Conditions: one subject after oral Δ8-THCV in MCT oil, Figure A1
So I've got a bunch of compounds here, and I need their concentration in representative plasma sample values.
One number for each entry, in ng/mL.

CCCc1cc(O)c2c(c1)OC(C)(C)[C@@H]1CCC(C)=C[C@@H]21 [Δ9-THCV, Δ9-tetrahydrocannabivarin]
2.4
CCCc1cc(O)c2c(c1)OC(C)(C)[C@@H]1CCC(C(=O)O)=C[C@@H]21
33.2

Give one value of concentration in representative plasma sample per listed compound.
1. CCCc1cc(O)c2c(c1)OC(C)(C)[C@@H]1CC=C(CO)C[C@@H]21 (racemic) [11-OH-Δ8-THCV, (±)-11-hydroxy-Δ8-THCV]
2. CCCCCc1cc(O)c2c(c1)OC(C)(C)[C@@H]1CC=C(C(=O)O)CC21 (single isomer, unassigned; (+)) [Δ8-THC-COOH, (+)-11-nor-Δ8-THC-9-carboxylic acid]
3. CCCc1cc(O)c2c(c1)OC(C)(C)[C@@H]1CC=C(C)C[C@@H]21 [Δ8-THCV, Δ8-tetrahydrocannabivarin]
4. CCCc1cc(O)c2c(c1)OC(C)(C)[C@@H]1CC=C(C(=O)O)C[C@@H]21

1. 11.8
2. 1.4
3. 69.8
4. 1026

====

Assay: Plasma pharmacokinetics after single oral dose of Δ8-THCV in MCT oil (LC-MS/MS, non-compartmental analysis)
Format: in vivo, human
Details: human, plasma, po, 25 mg, 25 mg single oral Δ8-THCV in MCT oil; plasma; Median (Range); read-out: tmax
Would you mind telling me the reported Tmax of each entry?
Numbers only, in h.

Examples from the recorded data:
CCCc1cc(O)c2c(c1)OC(C)(C)[C@@H]1CC=C(C)C[C@@H]21 [Δ8-THCV, Δ8-tetrahydrocannabivarin]
4
CCCc1cc(O)c2c(c1)OC(C)(C)[C@@H]1CC=C(C(=O)O)C[C@@H]21
4
CCCc1cc(O)c2c(c1)OC(C)(C)[C@@H]1CC=C(CO)C[C@@H]21 (racemic) [11-OH-Δ8-THCV, (±)-11-hydroxy-Δ8-THCV]
4

Attention now shifts to the item below.
For CCCc1cc(O)c2c(c1)OC(C)(C)[C@@H]1CCC(C(=O)O)=C[C@@H]21 , write its Tmax.
4

====

Experiment: Plasma pharmacokinetics after single oral dose of Δ8-THCV in MCT oil (LC-MS/MS, non-compartmental analysis)
Format: in vivo, human
Conditions: human, plasma, oral, 200 mg, 4 h; 200 mg Δ8-THCV dose; Median (IQ Range)
Give measured log10 of concentration at 4 h for each item. Keep answers brief.
Heads up, the numbers here are log10 of concentration at 4 h in ng/mL units.

CCCc1cc(O)c2c(c1)OC(C)(C)[C@@H]1CC=C(C(=O)O)C[C@@H]21
3.05
CCCc1cc(O)c2c(c1)OC(C)(C)[C@@H]1CCC(C(=O)O)=C[C@@H]21
1.60
CCCc1cc(O)c2c(c1)OC(C)(C)[C@@H]1CCC(C)=C[C@@H]21 [Δ9-THCV, Δ9-tetrahydrocannabivarin]
-0.15
CCCc1cc(O)c2c(c1)OC(C)(C)[C@@H]1CC=C(CO)C[C@@H]21 (racemic) [11-OH-Δ8-THCV, (±)-11-hydroxy-Δ8-THCV]
0.53
CCCc1cc(O)c2c(c1)OC(C)(C)[C@@H]1CC=C(C)C[C@@H]21 [Δ8-THCV, Δ8-tetrahydrocannabivarin]
1.52

Please indicate log10 of concentration at 4 h recorded for CCCCCc1cc(O)c2c(c1)OC(C)(C)[C@@H]1CC=C(C(=O)O)CC21 (single isomer, unassigned; (+)) [Δ8-THC-COOH, (+)-11-nor-Δ8-THC-9-carboxylic acid]
0.23
